# TARGET DESC: serum albumin (Rattus norvegicus)
# Sequence (P02770 whole entry): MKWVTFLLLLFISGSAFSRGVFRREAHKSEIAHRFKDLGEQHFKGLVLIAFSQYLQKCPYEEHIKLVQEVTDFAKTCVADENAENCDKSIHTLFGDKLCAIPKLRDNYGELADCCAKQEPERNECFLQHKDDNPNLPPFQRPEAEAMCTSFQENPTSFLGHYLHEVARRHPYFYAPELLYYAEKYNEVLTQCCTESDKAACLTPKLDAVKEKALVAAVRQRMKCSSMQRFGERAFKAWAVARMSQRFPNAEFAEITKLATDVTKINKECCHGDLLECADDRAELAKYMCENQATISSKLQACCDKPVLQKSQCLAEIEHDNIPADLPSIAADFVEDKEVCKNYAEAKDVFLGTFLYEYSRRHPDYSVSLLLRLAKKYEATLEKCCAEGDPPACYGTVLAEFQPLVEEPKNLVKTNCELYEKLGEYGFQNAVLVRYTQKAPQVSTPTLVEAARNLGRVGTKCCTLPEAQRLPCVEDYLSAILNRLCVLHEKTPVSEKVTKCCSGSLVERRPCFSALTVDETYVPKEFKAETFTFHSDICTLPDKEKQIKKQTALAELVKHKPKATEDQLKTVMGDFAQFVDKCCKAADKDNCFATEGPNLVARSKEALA
# PROTOCOL SUMMARY: Binding affinity to rat serum albumin assessed as fraction unbound at 30 uM by HPLC analysis
# Type: ADME
Below, each entry is listed alongside its reported fraction unbound at 30 µM.
Please state the value as a number alone, without comment.

1) Cc1cccc(C)c1NC(=O)CC(C)NCc1ccccc1 (racemic)	0.122
2) Cc1cccc(C)c1NC(=O)C(C)N (racemic) [TOCAINIDE]	0.64
3) Cc1cccc(C)c1NC(=O)C1CCN(Cc2ccccc2)C1 (centres undefined)	0.0644

We next turn to a different compound, shown below.
### Prompt // map Cc1cccc(C)c1NC(=O)CC(C)NCc1cccc2ccccc12 (racemic) to recorded fraction unbound at 30 µM (system: serum albumin (Rattus norvegicus))
### Response 0.04

----------
# Lookup of reported fraction unbound at 30 µM keyed by entry
# TARGET DESC: serum albumin (Homo sapiens)
# Sequence (P02768 whole entry): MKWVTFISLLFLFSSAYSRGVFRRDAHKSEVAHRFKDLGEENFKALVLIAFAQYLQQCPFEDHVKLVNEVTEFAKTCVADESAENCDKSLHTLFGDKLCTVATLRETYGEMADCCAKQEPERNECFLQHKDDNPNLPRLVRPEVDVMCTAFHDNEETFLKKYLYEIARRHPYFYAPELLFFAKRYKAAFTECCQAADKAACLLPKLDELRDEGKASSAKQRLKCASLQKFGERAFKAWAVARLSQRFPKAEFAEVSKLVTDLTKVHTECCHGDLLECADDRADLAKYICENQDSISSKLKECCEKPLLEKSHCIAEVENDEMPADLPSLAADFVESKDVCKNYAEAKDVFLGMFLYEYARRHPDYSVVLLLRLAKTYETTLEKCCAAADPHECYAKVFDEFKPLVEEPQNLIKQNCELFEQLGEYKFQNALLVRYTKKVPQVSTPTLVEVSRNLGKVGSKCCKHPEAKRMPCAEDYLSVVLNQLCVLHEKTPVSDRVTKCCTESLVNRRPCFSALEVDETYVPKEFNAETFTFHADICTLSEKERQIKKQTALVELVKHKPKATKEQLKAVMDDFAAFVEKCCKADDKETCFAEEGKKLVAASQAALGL
# PROTOCOL SUMMARY: Binding affinity to human serum albumin at 30 uM by HPLC analysis
# Assay type: ADME
# SETUP CONDITIONS: read-out: PB (converted)

### Prompt Give its fraction unbound at 30 µM value. Item: Cc1cccc(C)c1NC(=O)CC(C)NCc1ccccc1 (racemic)
### Response 0.047

### Prompt I am curious: what fraction unbound at 30 µM value has been reported for Cc1cccc(C)c1NC(=O)C1CCN(Cc2ccccc2)C1 (stereo not given) ?
### Response 0.029

----------
# TARGET DESC: serum albumin (Rattus norvegicus)
# PROTOCOL SUMMARY: Binding affinity to rat serum albumin at 30 uM by HPLC analysis
# Type: ADME
# SETUP CONDITIONS: read-out: PB (converted)
# Lookup of reported fraction unbound at 30 µM keyed by entry
Could you keep your reply to the number by itself?

1) Cc1cccc(C)c1NC(=O)CC(C)NCc1ccccc1 (racemic)	0.121
2) O=C1CN=C(c2ccccc2Cl)c2cc([N+](=O)[O-])ccc2N1	0.117
3) Cc1cccc(C)c1NC(=O)C(C)N (racemic) [TOCAINIDE]	0.64

### Prompt Provide value of fraction unbound at 30 µM for this record tested with serum albumin (Rattus norvegicus): Cc1cccc(C)c1NC(=O)CC(C)NCc1cccc2ccccc12 (racemic)
### Response 0.04

### Prompt # query: fraction unbound at 30 µM | item Cc1cccc(C)c1NC(=O)C1CCN(Cc2ccccc2)C1 (stereo not given) | system: serum albumin (Rattus norvegicus)
### Response 0.064

----------
Measured fraction unbound at 30 µM accompanies every entry in the list below.
# TARGET DESC: serum albumin (Homo sapiens)
# PROTOCOL SUMMARY: Binding affinity to human serum albumin assessed as fraction unbound at 30 uM by HPLC analysis
# Type: ADME
Please reply with the value in numeric form only.

Worked set:
1. Cc1cccc(C)c1NC(=O)CC(C)NCc1cccc2ccccc12 (racemic)	0.033
2. Cc1cccc(C)c1NC(=O)CC(C)NCc1ccccc1 (racemic)	0.0474
3. Cc1cccc(C)c1NC(=O)C(C)N (racemic) [TOCAINIDE]	0.746

### Prompt Look at this molecule and give its reported fraction unbound at 30 µM. Cc1cccc(C)c1NC(=O)C1CCN(Cc2ccccc2)C1 (centres undefined)
### Response 0.0284

----------
Listed next: entries and their corresponding fraction unbound at 30 µM.
# TARGET DESC: serum albumin (Homo sapiens)
# PROTOCOL SUMMARY: Binding affinity to human serum albumin at 30 uM by HPLC analysis
# Format: ADME
# SETUP CONDITIONS: read-out: PB (converted)
Kindly provide the number alone.

1. O=C1CN=C(c2ccccc2Cl)c2cc([N+](=O)[O-])ccc2N1	0.143

### Prompt Could you tell me which fraction unbound at 30 µM is on file for Cc1cccc(C)c1NC(=O)C(C)N (racemic) [TOCAINIDE] ?
### Response 0.746

### Prompt Data request, read-out fraction unbound at 30 µM, for Cc1cccc(C)c1NC(=O)CC(C)NCc1cccc2ccccc12 (racemic)
### Response 0.033
